The reported measurements were obtained from patent CN116284408A.

- experimental.target: MUC17 on LS174T colorectal cancer cells (human, UniProt Q685J3 26-4493)
- assay.protocol: flow cytometry on LS174T cells, murine antibody titrated
- Parameters: unit not given here
observation.type: Top
// keep it numeric: no unit symbol after the value

Measured Top, 8H2 (antibody, V domains shown) VH: EVNLVESGGGLVKPGGSLKLSCAASGFAFSNYDMSWVRQTPEKRLEWVATISGGGSYTYYPDNVKGRFTISRDNAMNTLYLQMSSLRSEDTALYYCASVNWGFPYWGQGTLVTVSA VL: DIVMSQSPSSLAVSIGEKVTMSCKSSQSLLYSRNQKNYLAWYQQKPGQSPILLIYWTSTRESGVPDRFTGSGSGTDFTLTISGVKAEDLAVYYCQQYYTSPWTFGGGTRLEIK : 445

Measured Top, 50A5 (antibody, V domains shown) VH: QVQLKESGPGLVAPSQSLSITCTVSGFSLTAYGVHWVRQPPGKGLEWLGGIWAGGNTQSHSALMSRLTISKDISKSQVFLRMNSLQTDDSAMYYCARALFYGNFDVWGAGTTVTVSS VL: DIVMTQSQRFMSTSVGDRVSVTCKASQSVDTSVAWYQQRPGQSPEALIFSASYRYSGVPDRFTGSGSGTDFTLTISNVQSEDLAEYFCQQYNSYPYTFGGGTNLEIK : 500

Measured Top, 23F6 (antibody, V domains shown) VH: QVQLKESGPGLVAPSQSLSITCTVSGFSLTAYGVHWVRQPPGKGLEWLGGIWAGGNTQSHSALMSRVSISKDISKRQVFLKMDRLQTDDSAIYYCARALFYGNFDVWGAGTTVTVSS VL: DIVMTQSQRFMSTSVGDRVSVTCKASQSVDTSVAWYQQRPGQSPEALIFSASYRYSGVPDRFTGSGSGTDFTLTISNVQSEDLAEYFCQQYNSYPYTFGGGTNLEMR : 460

Measured Top, 51E12 (antibody, V domains shown) VH: QVQLQQSGPELVKPGASVKISCKVSGNAFSLSWMNWVKQRPGQGLEWIGRIYPGDGDSNYNGKFKGKATLTADKSSSTVFMQLSSLTSVDSAVYFCANYYGSSSWFVYWGQGTLVTVSA VL: DVVMTQTPLSLPVSLGDQASISCRSSQSLVHSYGNTYLHWYLQKPGQSPKLLIYKVSNRFSGVPDRFSGSGSGTDFTLKISRVETEDLGVYFCSQSTHFPWTFGGGTKLEIK : 878
